targetOfAssay: Receptor-type tyrosine-protein phosphatase F (Homo sapiens)
Sequence (P10586 whole entry, the tested form may be a part): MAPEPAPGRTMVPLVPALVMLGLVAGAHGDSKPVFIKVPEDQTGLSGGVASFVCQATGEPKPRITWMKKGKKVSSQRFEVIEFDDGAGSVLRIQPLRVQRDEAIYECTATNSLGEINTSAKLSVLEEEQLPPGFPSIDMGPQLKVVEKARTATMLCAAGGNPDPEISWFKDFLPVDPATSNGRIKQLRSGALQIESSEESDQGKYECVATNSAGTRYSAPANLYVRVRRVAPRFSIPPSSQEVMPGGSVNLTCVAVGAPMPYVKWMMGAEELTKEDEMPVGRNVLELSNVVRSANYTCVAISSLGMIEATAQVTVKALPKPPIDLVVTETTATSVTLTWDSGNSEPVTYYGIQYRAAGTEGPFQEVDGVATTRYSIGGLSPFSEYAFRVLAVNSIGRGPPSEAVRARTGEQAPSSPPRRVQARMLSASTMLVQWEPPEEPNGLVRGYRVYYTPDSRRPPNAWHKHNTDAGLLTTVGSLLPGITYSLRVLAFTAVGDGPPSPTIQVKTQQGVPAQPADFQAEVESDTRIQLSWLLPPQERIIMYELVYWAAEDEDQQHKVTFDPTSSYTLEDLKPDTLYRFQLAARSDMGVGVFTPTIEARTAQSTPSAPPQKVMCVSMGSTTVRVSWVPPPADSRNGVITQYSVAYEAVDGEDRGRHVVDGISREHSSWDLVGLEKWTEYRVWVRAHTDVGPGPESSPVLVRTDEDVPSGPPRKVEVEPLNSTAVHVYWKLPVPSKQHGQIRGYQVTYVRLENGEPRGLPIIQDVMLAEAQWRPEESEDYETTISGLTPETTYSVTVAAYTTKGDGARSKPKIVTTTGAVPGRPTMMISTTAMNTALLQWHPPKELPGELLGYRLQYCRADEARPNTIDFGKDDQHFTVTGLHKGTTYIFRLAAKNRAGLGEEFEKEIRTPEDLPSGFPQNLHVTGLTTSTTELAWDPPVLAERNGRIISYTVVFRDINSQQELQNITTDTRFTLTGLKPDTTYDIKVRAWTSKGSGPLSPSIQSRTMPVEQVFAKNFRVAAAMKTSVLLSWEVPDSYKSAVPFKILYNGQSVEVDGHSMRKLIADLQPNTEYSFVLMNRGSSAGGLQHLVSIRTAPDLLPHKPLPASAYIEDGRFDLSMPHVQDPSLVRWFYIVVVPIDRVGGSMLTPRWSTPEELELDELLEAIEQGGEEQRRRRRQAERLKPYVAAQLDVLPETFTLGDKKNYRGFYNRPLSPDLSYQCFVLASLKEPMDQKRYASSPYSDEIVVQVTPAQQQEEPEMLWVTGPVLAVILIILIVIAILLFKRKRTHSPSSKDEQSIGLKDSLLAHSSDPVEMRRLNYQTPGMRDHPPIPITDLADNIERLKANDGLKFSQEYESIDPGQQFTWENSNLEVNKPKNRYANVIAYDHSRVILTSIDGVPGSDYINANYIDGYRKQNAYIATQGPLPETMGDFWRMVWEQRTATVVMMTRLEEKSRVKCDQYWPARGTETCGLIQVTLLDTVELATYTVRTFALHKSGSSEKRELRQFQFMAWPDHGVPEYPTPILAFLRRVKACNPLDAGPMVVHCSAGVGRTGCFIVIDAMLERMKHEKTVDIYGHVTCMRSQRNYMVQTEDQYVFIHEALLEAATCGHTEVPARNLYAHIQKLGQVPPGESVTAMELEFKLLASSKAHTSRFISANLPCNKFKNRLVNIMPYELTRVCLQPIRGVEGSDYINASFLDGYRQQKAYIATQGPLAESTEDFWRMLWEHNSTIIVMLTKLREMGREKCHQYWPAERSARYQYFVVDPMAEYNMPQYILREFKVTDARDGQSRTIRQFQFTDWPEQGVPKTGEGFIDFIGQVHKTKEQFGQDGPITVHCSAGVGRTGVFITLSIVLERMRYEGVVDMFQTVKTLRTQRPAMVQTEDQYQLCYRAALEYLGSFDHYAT
testMethodNotes: Inhibition of membrane proximal catalytic domain of LAR-D1 assessed as p-nitrophenol release from pNPP substrate preincubated for 10 mins

compoundStructure | IC50
Cc1ccc(S(=O)(=O)Oc2cc(OCc3ccc(C(F)(F)F)cc3)c(/C=C3\SC(=O)NC3=O)cc2Br)cc1 | > 100 µM

====

pIC50: −log10 of the molar value.
Below are pIC50 values measured for Tyrosine-protein phosphatase non-receptor type 1 (Homo sapiens, UniProt P18031).
measuredParameter: pIC50

compoundStructure | measuredParameter | testResult
CC(=O)Nc1ccc(COc2cc(OS(=O)(=O)c3ccc(C)cc3)ccc2/C=C2\SC(=O)NC2=O)cc1 | pIC50 | 4.48
O=C1NC(=O)/C(=C/c2ccc(OCc3ccc(F)cc3)cc2OCc2ccccc2)S1 | pIC50 | 5.05
Cc1ccc(S(=O)(=O)Oc2ccc(/C=C3\SC(=O)NC3=O)c(OCc3ccc(C(F)(F)F)cc3)c2)cc1 | pIC50 | 5.64
O=C1NC(=O)/C(=C/c2ccc(OCc3ccccc3)cc2OCc2ccc(C(F)(F)F)cc2)S1 | pIC50 | 5.40
O=C1NC(=O)/C(=C/c2ccc(OCc3ccc(C(F)(F)F)cc3)cc2OCc2ccc(C(F)(F)F)cc2)S1 | pIC50 | 5.05

Every entry's value here was drawn from ChEMBL document CHEMBL1800016.
